Assay: CPHEA_Stoker_NIS_Cytotoxicity: Cytotoxicity Assessment for CPHEA's Radioactive Iodide Uptake (RAIU) Assay for Sodium/Iodide Symporter (NIS) Inhibition, Stoker and Laws Labs (AID 2283897)
Calls of active or inactive are those of the source. The calls were made as follows: active = hit-call score of the fitted dose curve at least 0.9, where 1 is the maximum; inconclusive = response in the unintended direction; inactive = score below 0.9.
Valid outcomes are listed here; reply with one: class 1 (active), class 0 (inactive)

q: Short answer needed: outcome of this test for CCCCCCCCOS(=O)(=O)O ?
a: class 0

q: Short answer needed: outcome of this test for CCCCCC1CCC(=O)O1 (stereo not drawn) ?
a: class 0

q: Short answer needed: outcome of this test for C#C[C@]1(O)CC[C@H]2[C@@H]3CCc4cc(O)ccc4[C@H]3CC[C@@]21C ?
a: class 0

q: Short answer needed: outcome of this test for c1ccc(Cc2ccccc2)cc1 ?
a: class 0

q: Short answer needed: outcome of this test for CCCCCC(=O)O[C@]1(C(C)=O)CC[C@H]2[C@@H]3CCC4=CC(=O)CC[C@]4(C)[C@H]3CC[C@@]21C ?
a: class 0

q: Short answer needed: outcome of this test for CC(=O)OC(C)(C)C ?
a: class 0

q: Short answer needed: outcome of this test for O=C(c1ccc(OCCN2CCCCC2)cc1)c1c(-c2ccc(O)cc2)sc2cc(O)ccc12 ?
a: class 1

q: Short answer needed: outcome of this test for CCCCCCCCCO ?
a: class 0

###

Read-out: Collagen III, COL3A1 (gene 1281)
Assay: BSK_MyoF_CollagenIII: BioMAP Diversity Plus: MyoF Assay for Collagen III Biomarker Activity (AID 2284239)
Conditions: primary human lung fibroblasts
Description: BSK_MyoF is a cell-based, multiplexed-readout assay that uses lung fibroblasts, […], with measurements taken at 24 hours after chemical dosing in a microplate: 96-well plate.BSK_MyoF_CollagenIII is an assay component measured in the BSK_MyoF assay. […] The levels of cell surface (or secreted, indicated by the prefix "s") biomarker endpoints were measured by ELISA. […] Plates were read after 6 h.
The source made the active and inactive calls. How the source made its calls: active means hit-call score of the fitted dose curve at least 0.9, where 1 is the maximum; inactive means score below 0.9.
Valid outcomes are listed here; reply with one: class 1 (active), class 0 (inactive)

q: Short answer needed: outcome of this test for CCCCCCCCCCCCS ?
a: class 1

q: Short answer needed: outcome of this test for CC(=O)OCC=C(C)CCC=C(C)CCC=C(C)C ?
a: class 0

q: Short answer needed: outcome of this test for c1ccc2c(c1)-c1ccc3ccc4cccc5cc-2c1c3c45 ?
a: class 1

###

Read-out: Thrombomodulin, THBD (gene 7056)
Assay: BSK_3C_Thrombomodulin: BioMAP Diversity Plus: 3C Assay for Thrombomodulin Biomarker Activity (AID 2283029)
Conditions: primary human endothelial cells (HUVEC); actives raise or lower the signal
The source made the active and inactive calls. How the source made its calls: active means hit-call score of the fitted dose curve at least 0.9, where 1 is the maximum; inactive means score below 0.9.
Valid outcomes are listed here; reply with one: active, inactive

q: Short answer needed: outcome of this test for CC1=CC(C)C(C=O)C(C)C1 (stereo not given) (tested in a mixture with another compound) ?
a: inactive

q: Short answer needed: outcome of this test for COC(=O)c1ccc(C(=O)OC)cc1 ?
a: inactive

q: Short answer needed: outcome of this test for CC(C)CCCC(C)(C)O ?
a: inactive

q: Short answer needed: outcome of this test for CC(=O)OC(C)(C)C1CC=C(C)CC1 (stereo not given) ?
a: inactive

q: Short answer needed: outcome of this test for CC1(C)[C@H](C=C(Cl)Cl)[C@H]1C(=O)OCc1cccc(Oc2ccccc2)c1 ?
a: inactive

q: Short answer needed: outcome of this test for CCCO[Si](OCCC)(OCCC)OCCC ?
a: inactive

q: Short answer needed: outcome of this test for CCn1cc(C(=O)O)c(=O)c2ccc(C)nc21 ?
a: inactive

q: Short answer needed: outcome of this test for O=S(=O)(O)C(F)(F)C(F)(F)OC(F)(F)C(F)(F)F ?
a: inactive

q: Short answer needed: outcome of this test for c1ccc2c(c1)-c1ccc3ccc4cccc5cc-2c1c3c45 ?
a: inactive

q: Short answer needed: outcome of this test for CCCCCCCC1CCCC1=O (stereo not given) ?
a: inactive

q: Short answer needed: outcome of this test for CC(C)(C)c1cccc(O)c1 ?
a: inactive

q: Short answer needed: outcome of this test for CCCCCCCCCC(=O)OCC ?
a: active

q: Short answer needed: outcome of this test for C#C[C@]1(O)CC[C@H]2[C@@H]3CCc4cc(O)ccc4[C@H]3CC[C@@]21C ?
a: inactive

q: Short answer needed: outcome of this test for C=CC(=O)OCC(CO)(COC(=O)C=C)COC(=O)C=C ?
a: inactive

q: Short answer needed: outcome of this test for CCCCN(CCO)CCO ?
a: inactive

q: Short answer needed: outcome of this test for O=C(O)C(F)(F)C(F)(F)C(F)(F)C(F)(F)C(F)(F)C(F)(F)C(F)(F)C(F)F ?
a: inactive

q: Short answer needed: outcome of this test for CC(C)Cc1ccc(C(C)C(=O)O)cc1 (stereo not given) ?
a: inactive

q: Short answer needed: outcome of this test for CCCCCCCCCCCCS ?
a: inactive

q: Short answer needed: outcome of this test for C=C(C)C(N)=O ?
a: inactive

q: Short answer needed: outcome of this test for O=S1(=O)CC(Cl)(Cl)C(Cl)(Cl)C1 ?
a: inactive

q: Short answer needed: outcome of this test for CCCCOCCOCCO ?
a: inactive

q: Short answer needed: outcome of this test for O=C(O)C(F)(F)OC(F)(F)C(F)(F)OC(F)(F)C(F)(F)C(F)(F)C(F)(F)F ?
a: inactive

q: Short answer needed: outcome of this test for COc1ccccc1NC(=O)CC(C)=O ?
a: inactive

q: Short answer needed: outcome of this test for CC(=O)OCC=C(C)CCC=C(C)CCC=C(C)C ?
a: inactive

q: Short answer needed: outcome of this test for CC=CC(=O)C1=C(C)C=CCC1(C)C ?
a: inactive

###

Target: Nuclear receptor subfamily 4 group A member 2 (Homo sapiens)
Assay: ATG_NURR1_TRANS: Attagene TRANS-FACTORIAL HepG2 Assay for human Nuclear Receptor Related Protein 1 (NURR1) (AID 2282985)
Settings: HepG2 Attagene TRANS reporter, mRNA readout
Records with an inconclusive call do not appear. Calls of active or inactive are those of the source. The calls were made as follows: active = hit-call score of the fitted dose curve at least 0.9, where 1 is the maximum; inconclusive = response in the unintended direction; inactive = score below 0.9.
Valid outcomes are listed here; reply with one: active, inactive

q: Short answer needed: outcome of this test for CCOC(=O)C=Cc1ccccc1 ?
a: inactive

q: Short answer needed: outcome of this test for CCCCOCCOCCO ?
a: inactive

q: Short answer needed: outcome of this test for O=C(O)c1cc2ccccc2cc1O ?
a: inactive

q: Short answer needed: outcome of this test for CCO[Si](CC)(OCC)OCC ?
a: inactive

q: Short answer needed: outcome of this test for Cc1cc(O)c2c(c1)C(=O)c1cc(O)cc(O)c1C2=O ?
a: inactive

q: Short answer needed: outcome of this test for CCCCCC1CCC(=O)O1 (stereo not given) ?
a: inactive

q: Short answer needed: outcome of this test for CCO[Si](CCC#N)(OCC)OCC ?
a: inactive

q: Short answer needed: outcome of this test for O=S(=O)(O)CCCN1CCOCC1 ?
a: inactive

q: Short answer needed: outcome of this test for CC(C)CCOC(=O)CC(C)C ?
a: inactive

q: Short answer needed: outcome of this test for CCNC(=S)NCC ?
a: inactive

q: Short answer needed: outcome of this test for c1ccc(Cc2ccccc2)cc1 ?
a: inactive

q: Short answer needed: outcome of this test for CC1=CCC(C(C)(C)O)CC1 (stereo not given) ?
a: inactive

q: Short answer needed: outcome of this test for CCCCCC(=O)O[C@]1(C(C)=O)CC[C@H]2[C@@H]3CCC4=CC(=O)CC[C@]4(C)[C@H]3CC[C@@]21C ?
a: active

q: Short answer needed: outcome of this test for c1coc(CNc2ncnc3nc[nH]c23)c1 ?
a: inactive

q: Short answer needed: outcome of this test for C=C(C)C(=O)OCCN(C)C ?
a: inactive

###

Read-out: Human Leukocyte Antigen - DR isotype (HLADR), HLA-DRA (gene 3122)
Assay: BSK_CASM3C_HLADR: BioMAP Diversity Plus: CASM3C Assay for Human Leukocyte Antigen - DR isotype (HLADR) Biomarker Activity (AID 2283043);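 also: cell-surface HLA-DR protein level quantified by ELISA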
Settings: primary human coronary artery smooth muscle cells; actives raise or lower the signal
Calls of active or inactive are those of the source. The calls were made as follows: active = hit-call score of the fitted dose curve at least 0.9, where 1 is the maximum; inactive = score below 0.9.
endpoint: AC50

Recorded results for 6 compounds are shown here.
c1ccc2c(c1)-c1ccc3ccc4cccc5cc-2c1c3c45
inactive
CCOC(=O)C=Cc1ccccc1
inactive
C=C1CC/C=C(\C)CC[C@@H]2[C@@H]1CC2(C)C
inactive
O=S1(=O)CC(Cl)(Cl)C(Cl)(Cl)C1
0.421 µM (active)
CC(=O)c1ccc(C)cc1
inactive
O=S(=O)(O)C(F)(F)C(F)(F)OC(F)(F)C(F)(F)F
inactive

Now, please, on to the next compound.
q: Write down AC50 measured for item CCCCCCCCCC(=O)OCC
a: 32.5 µM (active)

###

Molecular target: Peroxisome proliferator-activated receptor gamma (Homo sapiens) (UniProt P37231)
Sequence (P37231 whole entry, looked up): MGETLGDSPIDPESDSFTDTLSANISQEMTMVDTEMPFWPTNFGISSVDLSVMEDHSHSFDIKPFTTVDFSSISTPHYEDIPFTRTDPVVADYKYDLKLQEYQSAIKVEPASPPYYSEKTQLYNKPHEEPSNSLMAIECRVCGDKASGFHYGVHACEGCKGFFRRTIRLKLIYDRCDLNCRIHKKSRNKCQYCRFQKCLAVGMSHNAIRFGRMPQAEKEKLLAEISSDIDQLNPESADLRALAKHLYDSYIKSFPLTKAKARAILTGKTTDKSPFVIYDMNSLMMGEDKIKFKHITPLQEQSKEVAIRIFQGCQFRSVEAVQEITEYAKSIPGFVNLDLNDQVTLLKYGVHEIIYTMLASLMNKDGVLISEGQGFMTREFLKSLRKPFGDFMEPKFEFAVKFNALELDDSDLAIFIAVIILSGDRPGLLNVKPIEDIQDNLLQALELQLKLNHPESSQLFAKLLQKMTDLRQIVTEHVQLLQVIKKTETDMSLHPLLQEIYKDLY
Experiment: ATG_PPARg_TRANS: Attagene TRANS-FACTORIAL HepG2 Assay for human Peroxisome Proliferator-activated Receptor-gamma (PPARg) (AID 2283007)
Inconclusive results are not listed. Activity calls are given as the source filed them. Rule for the calls: active = hit-call score of the fitted dose curve at least 0.9, where 1 is the maximum; inconclusive = response in the unintended direction; inactive = score below 0.9.
endpoint: AC50

Recorded results for 5 compounds are shown here.
C=CCOC(=O)/C=C\C(=O)OCC=C
1.96 µM (active)
O=C1OC2(c3ccc(O)cc3Oc3cc(O)ccc32)c2ccccc21
inactive
Cc1cccc(O)c1
inactive
CC(=O)OCC=C(C)CCC=C(C)CCC=C(C)C
18.9 µM (active)
COC(=O)c1cccc(C(=O)OC)c1
inactive

q: Write down AC50 measured for item COc1ccccc1NC(=O)CC(C)=O
a: inactive

q: Write down AC50 measured for item CCC(=O)OCC=Cc1ccccc1
a: inactive

q: Write down AC50 measured for item CCn1cc(C(=O)O)c(=O)c2ccc(C)nc21
a: inactive

q: Write down AC50 measured for item CC(=O)C1=C(C)[C@@H]2C[C@@]3(C1)[C@H](C)CC[C@H]3C2(C)C
a: 100 µM (active)

q: Write down AC50 measured for item CC1(C)CC(=O)CC(C)(C)N1
a: inactive

q: Write down AC50 measured for item CN1CCc2cccc3c2[C@H]1Cc1ccc(O)c(O)c1-3
a: 12 µM (active)

q: Write down AC50 measured for item CCC(C)(C)C1CCC(=O)CC1
a: inactive

q: Write down AC50 measured for item CC(=O)OC(C)(C)C
a: inactive

q: Write down AC50 measured for item CCCCOCC(C)OCC(C)O (centres undefined)
a: inactive
